- Test system: NIH3T3
- experimentalDetails: Cytotoxicity against mouse NIH/3T3 cells
- Assay type: cell-based
The entries below come with measured log10 of EC50 values attached.
measuredAttribute: log10 of EC50 (log10 of the value in µM)

>>> print(df.to_string())
                                samplesmiles  result
 0   Cc1cc(Oc2cccc(CN3CCN(C)CC3)c2)cc(C)c1Cl    1.47
 1              Cc1ccccc1Oc1cccc(Cn2ccnc2)c1    1.90
 2  Cc1cc(Oc2cccc(Cn3cnc4ccccc43)c2)cc(C)c1Cl    1.60
 3         Clc1ccc(CCOc2cccc(Cn3ccnc3)c2)cc1    1.85
 4  Cc1nnc(Cc2cccc(Oc3cc(C)c(Cl)c(C)c3)c2)o1    0.79
 5  Cc1nnc(Cc2cccc(Oc3cc(C)c(Cl)c(C)c3)c2)s1    0.58
 6       Cc1cc(Oc2cccc(Cn3ccnc3)c2)cc(C)c1Cl    1.13
 7       Cc1cc(Oc2cccc(Cn3ccnn3)c2)cc(C)c1Cl    1.82
 8  c1ccc(-c2cccc(Oc3cccc(Cn4ccnc4)c3)c2)cc1    1.53
 9          Clc1ccc(COc2cccc(Cn3ccnc3)c2)cc1    1.88
10  Cc1nnc(-c2cccc(Oc3cc(C)c(Cl)c(C)c3)c2)o1    1.66
11       Cc1cc(Oc2cccc(Cn3cncn3)c2)cc(C)c1Cl    1.88
12            Cc1cccc(Oc2cccc(Cn3ccnc3)c2)c1    1.90

* * *

- experimentalDetails: Selectivity index, ratio of EC50 for mouse NIH/3T3 cells to EC50 for Trypanosoma cruzi trypomastigote
- Format: toxicity, cell-based, NIH3T3
- reportedConditions: read-out: Ratio EC50
measuredAttribute: selectivity ratio

In [3]: df
Out[3]:
                                samplesmiles  measuredattribute  rel  result
 0         Cc1cc(C)cc(Oc2cccc(Cn3ccnc3)c2)c1  selectivity ratio    >     300
 1  c1ccc(-c2cccc(Oc3cccc(Cn4ccnc4)c3)c2)cc1  selectivity ratio    =     121
 2  Cc1cc([N+](=O)[O-])ccc1Nc1cccc(Cn2ccnc2)c1  selectivity ratio    >    1000
 3          Clc1ccc(COc2cccc(Cn3ccnc3)c2)cc1  selectivity ratio    =    1810
 4              Cc1ccccc1Oc1cccc(Cn2ccnc2)c1  selectivity ratio    =     112
 5            Cc1cccc(Oc2cccc(Cn3ccnc3)c2)c1  selectivity ratio    =     238
 6             c1ccc(Oc2cccc(Cn3ccnc3)c2)cc1  selectivity ratio    >      60
 7           COc1cccc(Nc2cccc(Cn3ccnc3)c2)c1  selectivity ratio    >     500
 8           Clc1ccc(Oc2cccc(Cn3ccnc3)c2)cc1  selectivity ratio    >     150
 9         Clc1ccc(CCOc2cccc(Cn3ccnc3)c2)cc1  selectivity ratio    =     134
10       Cc1cc(Oc2cccc(Cn3ccnc3)c2)cc(C)c1Cl  selectivity ratio    =     169

* * *

- assayedSystem: hERG (KCNH2) (Homo sapiens, UniProt Q12809)
- Sequence (Q12809 whole entry): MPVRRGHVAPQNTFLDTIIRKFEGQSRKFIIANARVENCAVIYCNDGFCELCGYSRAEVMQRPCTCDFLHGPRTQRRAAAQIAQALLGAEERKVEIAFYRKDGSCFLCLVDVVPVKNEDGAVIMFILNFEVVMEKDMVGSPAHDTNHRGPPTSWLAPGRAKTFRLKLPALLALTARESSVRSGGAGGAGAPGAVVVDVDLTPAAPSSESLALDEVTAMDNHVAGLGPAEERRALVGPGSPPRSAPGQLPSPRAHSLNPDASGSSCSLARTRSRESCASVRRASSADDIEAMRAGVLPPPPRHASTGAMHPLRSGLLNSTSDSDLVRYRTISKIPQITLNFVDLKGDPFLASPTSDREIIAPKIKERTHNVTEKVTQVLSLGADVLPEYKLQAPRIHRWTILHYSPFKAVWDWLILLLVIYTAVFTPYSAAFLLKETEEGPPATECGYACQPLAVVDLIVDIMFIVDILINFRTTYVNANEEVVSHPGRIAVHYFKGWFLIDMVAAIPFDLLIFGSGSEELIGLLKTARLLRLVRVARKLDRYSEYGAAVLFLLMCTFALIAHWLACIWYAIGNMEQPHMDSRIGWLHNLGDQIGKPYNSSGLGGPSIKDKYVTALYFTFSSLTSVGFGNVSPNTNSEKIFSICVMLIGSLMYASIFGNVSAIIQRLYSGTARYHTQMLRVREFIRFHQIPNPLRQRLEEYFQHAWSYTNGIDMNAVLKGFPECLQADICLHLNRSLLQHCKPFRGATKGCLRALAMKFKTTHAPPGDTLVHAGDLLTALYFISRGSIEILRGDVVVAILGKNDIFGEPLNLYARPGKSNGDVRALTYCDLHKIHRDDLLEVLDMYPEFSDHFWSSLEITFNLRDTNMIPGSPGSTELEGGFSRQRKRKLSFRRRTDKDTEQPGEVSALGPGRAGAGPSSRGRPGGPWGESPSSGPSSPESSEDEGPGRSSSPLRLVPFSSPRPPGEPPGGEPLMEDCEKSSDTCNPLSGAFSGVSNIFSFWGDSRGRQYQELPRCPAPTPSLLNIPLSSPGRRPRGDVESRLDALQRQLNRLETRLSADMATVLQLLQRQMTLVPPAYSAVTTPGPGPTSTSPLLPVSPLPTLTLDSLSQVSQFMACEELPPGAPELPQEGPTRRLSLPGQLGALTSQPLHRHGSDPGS
- experimentalDetails: Inhibition of human ERG at 1 uM relative to control
measuredAttribute: inhibition at 1 µM (%)

                          samplesmiles  result
0  Cc1cc(Oc2cccc(Cn3ccnc3)c2)cc(C)c1Cl      19
